# Tested on: guinea pig ileum longitudinal muscle
# assay.method.text: Guinea pig ileum test (inhibition of electrically induced twitch)
# Type: cell-based
# cond: ratio of IC50 of reference Met5-enkephalin (=100) to IC50 of test compound in the same preparation, averaged, usually N=4
reported.endpoint: Average Molar Potency Ratio
Answer with the value's number alone.

Examples from the recorded data:
molecule: CN(C(=O)[C@@H](N)Cc1ccc(O)cc1)[C@H](CC[S+](C)[O-])C(=O)NCCCc1ccccc1.Cl.O (stereo partly shown)
tested.target: guinea pig ileum longitudinal muscle
Average Molar Potency Ratio: 650

molecule: Cl.NC(=O)CC[C@@H](NC(=O)[C@@H](N)Cc1ccc(O)cc1)C(=O)NCCCc1ccccc1.O
tested.target: guinea pig ileum longitudinal muscle
Average Molar Potency Ratio: 47

molecule: CSCC[C@@H](NC(=O)[C@@H](N)Cc1ccc(O)cc1)C(=O)N(C)CCCc1ccccc1.Cl
tested.target: guinea pig ileum longitudinal muscle
Average Molar Potency Ratio: 19

Please find the next molecule below.
-- ask Average Molar Potency Ratio lookup needed for CSCC[C@H](C(=O)NCCCc1ccccc1)N(C)C(=O)[C@@H](N)Cc1ccc(O)cc1.Cl , thanks.
-- reply 260

====

Below is a list of entries, each paired with its recorded Average Molar Potency Ratio value.
# Test system: guinea pig ileum longitudinal muscle
# assay.method.text: Guinea pig ileum test (inhibition of electrically induced twitch)
# Assay type: cell-based
# cond: ratio of IC50 of reference Met5-enkephalin (=100) to IC50 of test compound in the same preparation, averaged, usually N=4
Please reply with the value in numeric form only.

Past entries and their recorded results:
compound: CN[C@@H](Cc1ccc(O)cc1)C(=O)N[C@@H](CCSC)C(=O)NCCCc1ccccc1.Cl.O
tested.target: guinea pig ileum longitudinal muscle
Average Molar Potency Ratio: 180
--
compound: CSCC[C@@H](NC(=O)[C@@H](N)Cc1ccc(O)cc1)C(=O)NCCCc1ccccc1.Cl.O
tested.target: guinea pig ileum longitudinal muscle
Average Molar Potency Ratio: 279

Switching to the query record.
-- ask Fill in the blank: the reported Average Molar Potency Ratio of CN(CCCc1ccccc1)C(=O)[C@@H](CC[S+](C)[O-])NC(=O)[C@@H](N)Cc1ccc(O)cc1.Cl.O (stereo partly drawn) is ____.
-- reply 5
